Molecular target: protein tyrosine phosphatase 1B (PTP-1B) (Homo sapiens, UniProt P18031)
Sequence (P18031 whole entry, species assumed): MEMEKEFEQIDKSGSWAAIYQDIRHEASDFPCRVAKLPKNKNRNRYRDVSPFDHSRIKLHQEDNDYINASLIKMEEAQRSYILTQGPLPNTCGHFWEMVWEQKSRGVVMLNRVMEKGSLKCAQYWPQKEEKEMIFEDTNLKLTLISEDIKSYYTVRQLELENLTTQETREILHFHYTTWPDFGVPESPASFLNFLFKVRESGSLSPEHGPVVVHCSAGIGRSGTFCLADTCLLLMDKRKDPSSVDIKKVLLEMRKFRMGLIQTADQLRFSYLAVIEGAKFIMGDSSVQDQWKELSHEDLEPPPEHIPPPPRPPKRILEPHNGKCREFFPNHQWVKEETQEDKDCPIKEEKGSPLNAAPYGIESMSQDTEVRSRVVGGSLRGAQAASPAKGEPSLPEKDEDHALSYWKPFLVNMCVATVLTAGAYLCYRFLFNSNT
Parameter: IC50 (nM)

>>> print(df.to_string())
                            chemical_smiles  quantity_unit  observed_measurement
0  CC(=O)C(C[C@H]1CCC(=O)[C@H]([C@@H](O)c2ccc(C(F)(F)F)cc2)C1)C(C)=O             nM                   910

====

Molecular target: α-amylase
Assay: In-vitro α-amylase inhibition
Parameter: IC50 (µM)

In [3]: df
Out[3]:
                            chemical_smiles  observed_measurement
0  CC(=O)C(C[C@H]1CCC(=O)[C@H]([C@@H](O)c2ccc(C(F)(F)F)cc2)C1)C(C)=O                  4.58
